The following molecules each carry a recorded pKi for Vesicular acetylcholine transporter (Homo sapiens).
Answers are plain numbers, as −log10 of the molar value.

CNc1ccc(C(=O)C2CCN([C@@H]3Cc4ccccc4C[C@H]3O)CC2)cc1 | 8.52
O=C(c1ccc(OCCF)nc1)C1CCN([C@@H]2Cc3ccccc3C[C@H]2O)CC1 | 7.42
COc1cccnc1C(=O)C1CCN([C@@H]2Cc3ccccc3C[C@H]2O)CC1 | 6.92
O=C(c1cccnc1F)C1CCN([C@@H]2Cc3ccccc3C[C@H]2O)CC1 | 7.89
Cn1cccc1C(=O)C1CCN([C@@H]2Cc3ccccc3C[C@H]2O)CC1 | 7.74
O=C(c1cncc(F)c1)C1CCN([C@@H]2Cc3ccccc3C[C@H]2O)CC1 | 8.00

Dear reader, for each entry below, please note its pKi.
1. Cn1ccc(C(=O)C2CCN([C@@H]3Cc4ccccc4C[C@H]3O)CC2)c1
2. Cn1c(C(=O)C2CCN([C@@H]3Cc4ccccc4C[C@H]3O)CC2)cccc1=O
3. O=C(c1cccnc1)C1CCN([C@@H]2Cc3ccccc3C[C@H]2O)CC1
4. O=C(c1ccc(F)nc1)C1CCN([C@@H]2Cc3ccccc3C[C@H]2O)CC1
5. Cn1ccc(C(=O)C2CCN([C@@H]3Cc4ccccc4C[C@H]3O)CC2)cc1=O
6. O=C(c1ncccc1OCCF)C1CCN([C@@H]2Cc3ccccc3C[C@H]2O)CC1

Reply |
1. 7.57
2. 6.74
3. 7.62
4. 7.59
5. 7.18
6. 7.12

Hello, the source for this data is BindingDB's records for doi:10.1021/jm400664x, in case you need it.
